Target: T1, recombinant human trimeric ARG2 enzyme (construct not given) (human, UniProt P78540 23-354)
T1 sequence (looked up): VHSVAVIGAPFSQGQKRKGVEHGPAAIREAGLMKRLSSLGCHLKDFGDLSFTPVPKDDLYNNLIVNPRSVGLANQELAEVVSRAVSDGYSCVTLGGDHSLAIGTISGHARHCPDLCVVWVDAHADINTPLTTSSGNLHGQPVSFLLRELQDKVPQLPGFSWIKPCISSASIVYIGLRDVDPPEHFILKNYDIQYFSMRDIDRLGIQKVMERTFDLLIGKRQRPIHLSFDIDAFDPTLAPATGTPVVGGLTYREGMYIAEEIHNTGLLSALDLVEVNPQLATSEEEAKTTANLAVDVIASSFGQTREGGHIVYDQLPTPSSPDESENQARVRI
Experiment: cell-based or functional assay
Decision: Maximum % Proliferation, In Presence of rhARG2 >= 80% yields yes, all other cases yield no.

BINDER	CATEGORY
C0021065 recombinant human IgG1 (antibody, V domains shown) VH: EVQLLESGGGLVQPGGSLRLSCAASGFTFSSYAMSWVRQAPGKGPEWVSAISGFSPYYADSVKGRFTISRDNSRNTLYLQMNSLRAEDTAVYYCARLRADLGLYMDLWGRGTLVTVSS VL: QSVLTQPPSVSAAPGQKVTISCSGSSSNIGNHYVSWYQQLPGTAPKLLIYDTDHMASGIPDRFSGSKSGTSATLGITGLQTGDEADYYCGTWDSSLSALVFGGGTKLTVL	yes
C0021061 recombinant human IgG1 (antibody, V domains shown) VH: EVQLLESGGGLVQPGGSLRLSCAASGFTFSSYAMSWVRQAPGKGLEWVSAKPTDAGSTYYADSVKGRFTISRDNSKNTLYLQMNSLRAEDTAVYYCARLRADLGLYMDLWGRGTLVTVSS VL: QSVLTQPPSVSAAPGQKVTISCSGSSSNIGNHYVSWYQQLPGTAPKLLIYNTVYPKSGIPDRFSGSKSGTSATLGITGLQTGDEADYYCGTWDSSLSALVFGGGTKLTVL	yes
C0021133 recombinant human IgG1 (antibody, V domains shown) VH: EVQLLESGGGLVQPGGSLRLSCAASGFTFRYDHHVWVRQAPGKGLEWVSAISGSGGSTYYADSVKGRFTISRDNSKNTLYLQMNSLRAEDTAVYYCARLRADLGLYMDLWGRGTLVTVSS VL: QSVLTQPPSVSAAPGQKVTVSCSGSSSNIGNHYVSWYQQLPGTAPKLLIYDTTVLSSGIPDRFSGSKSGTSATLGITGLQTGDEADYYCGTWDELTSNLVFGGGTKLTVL	no
C0021139 recombinant human IgG1 (antibody, V domains shown) VH: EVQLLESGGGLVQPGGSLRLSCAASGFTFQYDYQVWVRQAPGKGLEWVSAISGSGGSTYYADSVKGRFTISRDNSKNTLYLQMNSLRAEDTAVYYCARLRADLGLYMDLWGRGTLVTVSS VL: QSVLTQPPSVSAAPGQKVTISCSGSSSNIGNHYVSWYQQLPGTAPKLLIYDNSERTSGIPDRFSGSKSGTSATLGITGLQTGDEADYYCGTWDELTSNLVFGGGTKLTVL	no
C0021022 recombinant human IgG1 (antibody, V domains shown) VH: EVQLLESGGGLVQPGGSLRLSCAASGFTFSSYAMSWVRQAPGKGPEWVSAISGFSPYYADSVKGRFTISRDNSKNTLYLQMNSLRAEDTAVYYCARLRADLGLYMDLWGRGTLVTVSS VL: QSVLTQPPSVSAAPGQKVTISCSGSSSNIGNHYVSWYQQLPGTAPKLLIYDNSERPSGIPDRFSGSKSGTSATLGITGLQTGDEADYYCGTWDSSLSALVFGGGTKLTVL	no

Now examine the next entry.
Say whether C0021092 recombinant human IgG1 (antibody, V domains shown) VH: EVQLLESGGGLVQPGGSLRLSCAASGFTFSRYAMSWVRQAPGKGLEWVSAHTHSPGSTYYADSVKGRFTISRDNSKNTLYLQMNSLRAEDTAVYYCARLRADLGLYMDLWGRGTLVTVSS VL: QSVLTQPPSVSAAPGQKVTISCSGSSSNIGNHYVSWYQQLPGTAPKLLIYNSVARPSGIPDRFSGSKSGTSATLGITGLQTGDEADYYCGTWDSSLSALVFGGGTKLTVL shows Maximum % Proliferation, In Presence of rhARG2 of 80% or more. no

This collection of values is drawn from patent US20220403048A1.
